target: rat B1R (bradykinin receptor 1) (Rattus norvegicus); construct: expressed in transfected cells; host or cells: CHO K1 cells; assay: FLIPR Ca2+ assay (Fluo-4) on CHO K1 cells stably transfected with the B1R gene of the rat (rB1R cells): % inhibition at 10 μM / IC50, agonist Des-Arg9-bradykinin; format: cell-based; conditions: CHO-K1, rat B1R
Parameter: inhibition at 10 µM. Scope: all listed entries.
# unit: % | format: bare number

Here is how some compounds turned out for inhibition at 10 µM.
compound | value
Cc1cccc(C)c1C(=O)NC1c2cc(C(=O)N3CCC4(CC3)CCN(c3ccncc3)CC4)ccc2CC1(C)C (stereo not shown) | 106
O=C(N[C@@H]1CCc2ccc(C(=O)N3CCC4(CCN(c5ccncc5)CC4)C3)cc21)c1c(F)cccc1Cl | 109
CCn1cc(CN2CCC3(CC2)CCN(C(=O)c2ccc4c(c2)C(NC(=O)c2c(C)cccc2Cl)CC4)C3)c(C)n1 (stereo not shown) | 55

Q. Query (compound): Cc1c(CN2CCC3(CC2)CCN(C(=O)c2ccc4c(c2)C(NC(=O)c2c(F)cccc2Cl)CC4)C3)cnn1C (stereo not shown) ; field requested: inhibition at 10 µM
A. 55

Q. Would you kindly repeat that for Cn1ccc2cc(S(=O)(=O)N3CCC4(CCN(C(=O)c5ccc6c(c5)C(NC(=O)c5ccccc5Cl)CC6)CC4)CC3)ccc21 (stereo not shown) ?
A. 67

Q. Next: O=C(N[C@@H]1CCc2ccc(C(=O)N3CCC4(CCN(c5ccncc5)CC4)C3)cc21)c1cccc(Cl)c1Cl
A. 98

###

Target: human B1R (bradykinin receptor 1) (Homo sapiens, UniProt P46663)
Construct: expressed in transfected cells; host or cells: CHO K1 cells
Sequence (P46663 whole entry): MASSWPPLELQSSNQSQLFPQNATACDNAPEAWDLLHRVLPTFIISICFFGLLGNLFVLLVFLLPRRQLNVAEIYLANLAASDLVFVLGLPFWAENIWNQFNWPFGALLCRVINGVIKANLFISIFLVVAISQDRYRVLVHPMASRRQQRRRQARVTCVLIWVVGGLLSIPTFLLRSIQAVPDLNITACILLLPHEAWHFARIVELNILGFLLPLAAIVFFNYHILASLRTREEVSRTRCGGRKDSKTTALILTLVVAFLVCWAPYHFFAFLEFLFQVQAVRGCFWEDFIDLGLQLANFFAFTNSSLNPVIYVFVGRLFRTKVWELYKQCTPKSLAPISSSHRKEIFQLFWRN
Experiment: FLIPR Ca2+ assay (Fluo-4) on CHO K1 cells stably transfected with the human B1R gene (hB1R cells): % inhibition at 10 μM / IC50, agonist Lys-Des-Arg9-bradykinin
Type: cell-based
Details: CHO-K1, human B1R
From the text: The agonistic or antagonistic action of substances can be quantified on the bradykinin receptor 1 (B1R) of the human and rat species with ectopically expressing cell lines (CHO K1 cells) and with the aid of a Ca^2+-sensitive dyestuff (Fluo-4) in a fluorescent imaging plate reader (FLIPR). […] The agonistic or antagonistic action of substances can be determined on the bradykinin receptor 1 (B1R) of the human and rat species with the following assay. […]
Label Y when inhibition at 10 µM >= 90%; otherwise N.

Q. Determine whether this compound has inhibition at 10 µM no lower than 90%: COc1cc(C)c(S(=O)(=O)N[C@H]2CCCc3ccc(C(=O)N4CCC5(CCN(c6ccncc6)CC5)C4)cc32)c(C)c1
A. Y

Q. Also check O=C(c1ccc2c(c1)[C@H](N(CC(F)(F)F)C(=O)c1ccccc1Cl)CC2)N1CCC2(CCN(c3ccncc3)CC2)C1
A. Y

Q. Repeat with O=C(NC1CCCCc2ccc(C(=O)N3CCC4(CC3)CCN(c3ccncc3)CC4)cc21)c1ccccc1Cl (stereo not shown)
A. N

Q. Do the same for O=C(NC1CCc2ccc(C(=O)N3CCC4(CC3)CCN(c3ccncc3)C4)cc21)C(c1ccccc1)c1ccccc1Cl (stereo not shown) please
A. N

Q. Now give it for O=C(c1ccc2c(c1)[C@H](NS(=O)(=O)c1ccccc1Cl)CCC2)N1CCC2(CCN(c3ccncc3)CC2)C1 too.
A. Y

Q. Try this compound too: CN(C(=O)c1ccccc1Cl)C1CCc2ccc(C(=O)N3CCC4(CCN(Cc5ccncc5)CC4)CC3)cc21 (stereo not shown)
A. N

###

The following compounds are listed with their measured inhibition at 10 µM values.
Target: rat B1R (bradykinin receptor 1) (Rattus norvegicus)
Construct: expressed in transfected cells; host or cells: CHO K1 cells
Experiment: FLIPR Ca2+ assay (Fluo-4) on CHO K1 cells stably transfected with the B1R gene of the rat (rB1R cells): % inhibition at 10 μM / IC50, agonist Des-Arg9-bradykinin
Assay type: cell-based
Conditions: CHO-K1, rat B1R
Text: The agonistic or antagonistic action of substances can be quantified on the bradykinin receptor 1 (B1R) of the human and rat species with ectopically expressing cell lines (CHO K1 cells) and with the aid of a Ca^2+-sensitive dyestuff (Fluo-4) in a fluorescent imaging plate reader (FLIPR). […] The agonistic or antagonistic action of substances can be determined on the bradykinin receptor 1 (B1R) of the human and rat species with the following assay. […]
Write it as a number; the unit % goes unstated.

Below, each entry is followed by its recorded inhibition at 10 µM result.
compound | parameter | value
O=C(NC1CCc2ccc(C(=O)N3CCC4(CCN(C(=O)c5ccc(F)cc5Cl)CC4)C3)cc21)c1sccc1Cl (stereo not shown) | inhibition at 10 µM | 63
O=C(NC1CCc2ccc(C(=O)N3CCC4(CCN(Cc5c[nH]cn5)CC4)CC3)cc21)c1ccccc1Cl (stereo not shown) | inhibition at 10 µM | 100
O=C(NC1CCc2ccc(C(=O)N3CCC4(CCN(c5ccncc5)CC4)C3)cc21)C1CCCC1 (stereo not shown) | inhibition at 10 µM | 103
CN(C(=O)c1ccccn1)C1CCc2ccc(C(=O)N3CCC4(CC3)CCN(c3ccncc3)CC4)cc21 (stereo not shown) | inhibition at 10 µM | 101
O=C(NC1CCc2ccc(C(=O)N3CCC4(CCN(c5ccc6cnccc6c5)CC4)C3)cc21)c1ccccc1Cl (stereo not shown) | inhibition at 10 µM | 98

Q. Fill in: inhibition at 10 µM of O=C(NC1CCc2ccc(C(=O)N3CCC4(CC3)CCN(c3ccncc3)CC4)cc21)c1cccc(Cl)c1Cl (stereo not shown) is ___
A. 106

Q. Continue with O=C(NC1CCc2ccc(C(=O)N3CCC4(CCN(Cc5ccc[nH]5)CC4)CC3)cc21)c1cc(Cl)ccc1F (stereo not shown)
A. 62

Q. Do the same for O=C(NC1CCc2ccc(C(=O)N3CCC4(CCN(c5ccncc5)CC4)C3)cc21)c1ccccc1C(F)(F)F (stereo not shown) please
A. 101

###

biological target: rat B1R (bradykinin receptor 1) (Rattus norvegicus, UniProt P97583); construct: expressed in transfected cells; host or cells: CHO K1 cells; assay: FLIPR Ca2+ assay (Fluo-4) on CHO K1 cells stably transfected with the B1R gene of the rat (rB1R cells): % inhibition at 10 μM / IC50, agonist Des-Arg9-bradykinin; format: cell-based; details: CHO-K1, rat B1R
Sequence (P97583 whole entry): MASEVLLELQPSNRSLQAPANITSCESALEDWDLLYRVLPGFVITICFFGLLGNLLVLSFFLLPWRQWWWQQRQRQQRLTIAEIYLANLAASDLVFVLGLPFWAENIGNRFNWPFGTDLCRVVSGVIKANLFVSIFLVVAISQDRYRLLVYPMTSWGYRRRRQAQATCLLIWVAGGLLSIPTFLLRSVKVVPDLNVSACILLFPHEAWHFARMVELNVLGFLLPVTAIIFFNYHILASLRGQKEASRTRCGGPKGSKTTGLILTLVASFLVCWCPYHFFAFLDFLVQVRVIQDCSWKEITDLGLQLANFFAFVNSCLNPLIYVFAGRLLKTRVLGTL
Reported inhibition at 10 µM values for the following compounds.
Number in %, nothing else.

compound | parameter | value
COc1ccc(CN2CCC3(CC2)CCN(C(=O)c2ccc4c(c2)C(NC(=O)c2sccc2Cl)CC4)C3)cc1F (stereo not shown) | inhibition at 10 µM | 66

Q. What value of inhibition at 10 µM on rat B1R (bradykinin receptor 1) (Rattus norvegicus, UniProt P97583) does O=C(NC1CCc2ccc(C(=O)N3CCC4(CC3)CCN(c3ccncc3)CC4)cc21)c1cc(F)c(F)cc1Cl (stereo not shown) have?
A. 104

Q. Please answer likewise for O=C(c1cccc2c1CC[C@H]2N1Cc2cccc(Cl)c2C1=O)N1CCC2(CCN(c3ccncc3)CC2)C1
A. 12

Q. Try this compound next: CN(C1CCc2ccc(C(=O)N3CCC4(CC3)CCN(c3ccncc3)CC4)cc21)S(=O)(=O)Cc1cccc(C(F)(F)F)c1 (stereo not shown)
A. 100

###

biological target: human B1R (bradykinin receptor 1) (Homo sapiens, UniProt P46663); construct: expressed in transfected cells; host or cells: CHO K1 cells; assay: FLIPR Ca2+ assay (Fluo-4) on CHO K1 cells stably transfected with the human B1R gene (hB1R cells): % inhibition at 10 μM / IC50, agonist Lys-Des-Arg9-bradykinin; assay type: cell-based; details: CHO-K1, human B1R
Measured inhibition at 10 µM by item

compound | parameter | value
O=C(NC1CCc2ccc(C(=O)N3CCC4(CC3)CCN(c3ccncc3)CC4)cc21)c1ccc(Cl)s1 (centres unmarked) | inhibition at 10 µM | 97%
O=C(N[C@@H]1CCOc2cc(F)c(C(=O)N3CCC4(CCN(c5ccncc5)CC4)C3)cc21)c1ccccc1Cl | inhibition at 10 µM | 100%
O=C(N[C@@H]1CCc2ccc(C(=O)N3CCC4(CCN(c5ccncc5)CC4)C3)cc21)c1cccc(Cl)c1Cl | inhibition at 10 µM | 100%

Q. // query inhibition at 10 µM value for entry O=C(NC1CCCCc2ccc(C(=O)N3CCC4(CC3)CCN(c3cccnc3)CC4)cc21)c1ccccc1Cl (centres unmarked)
A. 46%

Q. Now the same for O=C(/C=C/c1ccccc1Cl)NC1CCc2ccc(C(=O)N3CCC4(CC3)CCN(c3ccncc3)C4)cc21 (centres unmarked)
A. 98%

Q. Try the compound CN(C(=O)C(c1ccccc1)c1ccccc1Cl)C1CCc2ccc(C(=O)N3CCC4(CC3)CCN(c3ccncc3)CC4)cc21 (centres unmarked)
A. 94%

Q. Do the same for O=C(N[C@@H]1CCc2ccc(C(=O)N3CC4(CCN(c5ccncc5)CC4)C3)cc21)c1ccccc1Cl please
A. 100%

Q. Next: CC1(C)Cc2ccc(C(=O)N3CCC4(CC3)CCN(c3ccncc3)CC4)cc2C1NC(=O)c1ccccc1C(F)(F)F (centres unmarked)
A. 95%
